The origin of these recorded values is paper PMC9975351.

- TEST DESCRIPTION: Metabolic stability and metabolite formation in pooled human liver microsomes with NADPH and/or UDPGA
- Assay type: in vitro ADME
- CONDITIONS USED: human, microsomes, pH 7.4, NADPH + UDPGA; in vitro-in vivo extrapolation, well-stirred model; read-out: Intrinsic clearance (in vivo) CLint
OUTCOME MEASURE: CLint scaled at 1 µM

Bench note: what CLint scaled at 1 µM did Cc1ccc(N)cc1C(=O)N[C@H](C)c1cccc2ccccc12 show?
24.1 mL/min/kg
